Where do the numbers come from? From patent US20170165365A1.

target: T1, cynomolgus EGFR antigen (cynomolgus monkey, UniProt A0A2K5WK39 25-645); experiment: SPR (ProteOn XPR36), IgG captured by anti-human Fc, soluble monovalent antigen, 1:1 fit
T1 construct: In-house antigen; also called cynomolgus antigen
quantity-kind: Kd

[
  {
    "binder": "chimeric anti-EGFR antibody 1277 (antibody, V domains shown, the light chain entry is full length) VH: EVQLVESGGGLVKPGESLKLSCAASGFAFSYSDMSWVRQTPEKRLEWVAYMSSAGDVTFYSDTVKGRFTISRDNAKNTLYLQVSSLKSEDTAIYYCVRHRDVAMDYWGQGTSVTVS VL: DVVMTQTPLSLPVSLGDQASISCRSSQSLVHSNGNTYLHWYLQKPGQSPKLLIYKVSNRFSGVPDRFSGSGSGTDFTLKISRVEAEDLGVYFCSQSTHVPTFGGGTKLEIKR",
    "quantity-kind": "Kd",
    "reported": "0.59 nM"
  },
  {
    "binder": "chimeric anti-EGFR antibody 1565 (antibody, V domains shown, light chain entry is full length) VH: EVQLQQSGTELVKPGASVILSCKASGYTFTSYWMQWVKQRPGQGLEWIGNINPSNGGTSFNEEFKSRATLTVDKSSSTAYMQLSSLTSEDSAVYYCARDGGLYDGYYFDFWGQGTTLTVS VL: NIVMTQSHKFMSTLIGARVSITCKASQDVDTAVAWYQQKPGQSPKLLIYWASTRHTGVPDRFTGSGSGTDFSLTVSNVQSEDLTDYFCQQYSSYPLTFGAGTKLELKR",
    "quantity-kind": "Kd",
    "reported": "28 nM"
  },
  {
    "binder": "humanized anti-EGFR antibody 11294 (antibody, V domains shown) VH: EVQLVESGGGLVQPGGSLRLSCAASGFAFSYSDMSWVRQAPGKRLEWVSYMSSAGDVTFYSDTVKGRFTISRDNAKNSLYLQVNSLRAEDTAVYYCVRHRDVAIDYWGQGTTVTVSS VL: DVVMTQSPLSLPVTLGQPASISCRSSQSLVHSNLNTYLHWYQQRPGQSPRLLIYKVSNRFSGVPDRFSGSGSGTDFTLKISRVEAEDVGVYFCSQSTHVPTFGGGTKVEIK",
    "quantity-kind": "Kd",
    "reported": "0.56 nM"
  },
  {
    "binder": "humanized anti-EGFR antibody 11302 (antibody, V domains shown) VH: QVQLVQSGAEVKKPGASVKLSCKASGYTFTSYWMQWVRQAPGQGLEWIGNINPSNLGTSFNEEFKSRATMTRDTSTSTVYMELSSLRSEDTAVYYCARDGGLYDGYYFDFWGQGTLVTVSS VL: AIQLTQSPSSLSASVGDRVTITCKASQDVDTAVAWYQQKPGKAPKLLIYWASTRHTGVPSRFSGSGSGTDFTLTVSSLQPEDFATYFCQQYSSYPLTFGGGTKVEIK",
    "quantity-kind": "Kd",
    "reported": "1.2 nM"
  },
  {
    "binder": "humanized anti-EGFR antibody 10560 (antibody, V domains shown, also called 10550 (misprint in some paragraphs)) VH: QVQLVQSGAEVKKPGASVKLSCKASGYTFTSYWMQWVRQAPGQGLEWIGNINPSNGGTSFNEEFKSRATMTRDTSTSTVYMELSSLRSEDTAVYYCARDGGLYDGYYFDFWGQGTLVTVSS VL: AIQLTQSPSSLSASVGDRVTITCKASQDVDTAVAWYQQKPGKAPKLLIYWASTRHTGVPSRFSGSGSGTDFTLTVSSLQPEDFATYFCQQYSSYPLTFGGGTKVEIK",
    "quantity-kind": "Kd",
    "reported": "3.1 nM"
  },
  {
    "binder": "humanized anti-EGFR antibody 10292 (antibody, V domains shown) VH: EVQLVESGGGLVQPGGSLRLSCAASGFAFSYSDMSWVRQAPGKRLEWVSYMSSAGDVTFYSDTVKGRFTISRDNAKNSLYLQVNSLRAEDTAVYYCVRHRDVAMDYWGQGTTVTVSS VL: DIQMTQSPSSLSASVGDRATITCRSSQSLVHSNGNTYLHWYQQKPGKAPKLLIYKVSNRFSGVPSRFSGSGSGTDFTLTISSLQPEDFATYFCSQSTHVPTFGGGTKVEIK",
    "quantity-kind": "Kd",
    "reported": "0.35 nM"
  }
]
